Recorded measurements of EC50, one per entry
# system: T1, human Nectin-4 protein (human, UniProt Q96NY8 32-349)
# T1 construct: Purified protein used for coating in ELISA and as analyte in Octet; also called human Nectin-4 antigen
# T1 sequence (looked up): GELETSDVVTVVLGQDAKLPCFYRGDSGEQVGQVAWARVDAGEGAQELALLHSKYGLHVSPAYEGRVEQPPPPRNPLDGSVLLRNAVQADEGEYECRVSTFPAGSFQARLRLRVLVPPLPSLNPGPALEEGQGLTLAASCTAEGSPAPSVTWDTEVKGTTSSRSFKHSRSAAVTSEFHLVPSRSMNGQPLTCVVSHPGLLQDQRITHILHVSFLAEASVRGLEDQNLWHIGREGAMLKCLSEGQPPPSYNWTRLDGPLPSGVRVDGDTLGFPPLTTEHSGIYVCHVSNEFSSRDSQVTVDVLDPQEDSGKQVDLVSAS
# procedure_details: ELISA, coated antigen
Express it in ng/mL; write the number only.

Record excerpt, results attached:
• Enfortumab (antibody, V domains shown) VH: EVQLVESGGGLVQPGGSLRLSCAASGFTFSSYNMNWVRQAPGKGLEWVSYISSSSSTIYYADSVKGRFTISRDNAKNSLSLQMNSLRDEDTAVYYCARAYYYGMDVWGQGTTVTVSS VL: DIQMTQSPSSVSASVGDRVTITCRASQGISGWLAWYQQKPGKAPKFLIYAASTLQSGVPSRFSGSGSGTDFTLTISSLQPEDFATYYCQQANSFPPTFGGGTKVEIKR = 7.1
• anti-human Nectin-4 humanized monoclonal antibody 74HZ (antibody, human IgG1, kappa, V domains shown, Human IgG1 heavy chain constant region, human kappa light chain constant region; expressed in CHO-E cells) VH: QVQLVQSGAEVKKPGSSVKVSCKASGYTFINYWMNWVRQAPGQGLEWIGMIHPSDSATRLNQSFQGRVTLTVDKSTSTAYMELSSLRSEDTAVYYCARWGNFYTVNAWYYFDYWGQGTLVTVSS VL: DIVITQSPDSLAVSLGERATINCKSSQTLLNSNTQKNYLAWYQQKPGQSPKLLFYFASTRESGVPDRFSGSGSGTDFTLTISSLQAEDVAVYFCQQHYSTPLTFGQGTKLEIKR = 8.34
• anti-human Nectin-4 humanized monoclonal antibody 31HZ (antibody, human IgG1, kappa, V domains shown, Human IgG1 heavy chain constant region, human kappa light chain constant region; expressed in CHO-E cells) VH: QVQLVQSGAEVKKPGSSVKVSCKASGYTFTDYWMNWVRLAPGQGLEWIGMIHPSDSETRLNQKFQGRVTLTVDKSTSTAYMELSSLRSEDTAVYYCARWDFRIYYAMDYWGQGTLVTVSS VL: DVVITQSPDSLAVSLGERATINCKSSQSLLNTNSQKNYLAWYQQKPGQSPKLLVYFASTRESGVPDRFSGSGSGTDFTLTISSLQAEDVAVYFCQQHYSTPLTFGGGTKVEIKR = 3.6

// lookup EC50 for anti-human Nectin-4 humanized monoclonal antibody 56HZ (antibody, human IgG1, kappa, V domains shown, Human IgG1 heavy chain constant region, human kappa light chain constant region; expressed in CHO-E cells) VH: QVQLQESGPGLVKPSQTLSLTCTVSGYFNSITSDYDWHWIRHHPGKGLEWMGYISFSGRTYYNPSLKSRVTISHDTSKNQFSLKLSSVTAADTAVYYCARGNYDGFDYWGQGTLVTVSS VL: DIVLTQSPATLSLSPGERATLSCRASQNIGTSIHWYQHKPGQSPRLLIKFASESISGIPARFSGSGSGTDFTLTISSLEPEDFAVYYCQQSKSWPTYTFGGGTKVEIKR
9.48
